Data origin, for the record: ChEMBL document CHEMBL1141204

Give KA for every item shown.
experimentalTarget: Carbonic anhydrase 4 (Homo sapiens)
protocolSummary: Activation constant against recombinant human CA IV isozyme by the esterase method
Assay type: functional
Write it as a number; the unit µM goes unstated.

Entry NCCc1c[nH]cn1 needs its KA filled in; supply it. 37

Entry COC(=O)[C@@H](N)Cc1c[nH]cn1 needs its KA filled in; supply it. 23

Entry NCCC(=O)N[C@@H](Cc1c[nH]cn1)C(=O)O needs its KA filled in; supply it. 15

Entry N[C@@H](Cc1ccccc1)C(=O)O needs its KA filled in; supply it. 4.6

Entry N[C@@H](Cc1c[nH]cn1)C(=O)O needs its KA filled in; supply it. 33
